Where do the numbers come from? From ChEMBL document CHEMBL5584334.

Items are presented alongside their recorded Activity.
Molecular target: Caspase-1 (Homo sapiens) (UniProt P29466)
Sequence (P29466 120-297 limits assumed): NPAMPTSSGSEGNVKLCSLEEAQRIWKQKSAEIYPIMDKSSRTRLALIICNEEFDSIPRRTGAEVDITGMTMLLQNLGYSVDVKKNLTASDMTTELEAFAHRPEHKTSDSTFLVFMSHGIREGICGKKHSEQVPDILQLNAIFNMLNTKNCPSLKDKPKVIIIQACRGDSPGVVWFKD
Sequence (P29466 317-404 limits assumed): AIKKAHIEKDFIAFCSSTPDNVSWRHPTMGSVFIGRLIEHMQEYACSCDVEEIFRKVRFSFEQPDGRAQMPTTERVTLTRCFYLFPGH
Assay: Inhibition of recombinant human caspase-1 expressed in Escherichia coli BL21 cells assessed as remaining activity at 10 uM using […] as substrate incubated for 30 mins relative to control
measurement_kind: Activity (%)

{"smiles_str": "CC(C)(C)OC(=O)[C@@H]1C[C@@H](N=C=S)C=C[C@@]12C(=O)N(C(=O)OCC1c3ccccc3-c3ccccc31)c1ccccc12", "measurement_kind": "Activity", "quantitative_readout": 90}
{"smiles_str": "CC(C)(C)OC(=O)[C@@H]1C[C@@H](N=C=S)C=C[C@@]12C(=O)N(C(=O)OCc1ccccc1)c1cc(F)c(F)cc12", "measurement_kind": "Activity", "quantitative_readout": 73}
{"smiles_str": "CCC1=C[C@@]2(C(=O)N(C(=O)OCc3ccccc3)c3ccccc32)[C@H](C(=O)OC(C)(C)C)C[C@@]1(CC)N=C=S", "measurement_kind": "Activity", "quantitative_readout": 108}
{"smiles_str": "O=C(Oc1ccccc1)[C@@H]1C[C@@H](N=C=S)C=C[C@@]12C(=O)N(C(=O)OCc1ccccc1)c1ccccc12", "measurement_kind": "Activity", "quantitative_readout": 101}
{"smiles_str": "CC1=C[C@@]2(C(=O)N(C(=O)OCc3ccccc3)c3ccccc32)[C@H](C(=O)OC(C)(C)C)C[C@@]1(C)N=C=S", "measurement_kind": "Activity", "quantitative_readout": 103}
{"smiles_str": "CC(C)(C)OC(=O)[C@@H]1C[C@@H](N=C=S)C=C[C@@]12C(=O)N(C(=O)OCc1ccccc1)c1ccccc12", "measurement_kind": "Activity", "quantitative_readout": 76}
{"smiles_str": "CC(C)OC(=O)[C@@H]1C[C@@H](N=C=S)C=C[C@@]12C(=O)N(C(=O)OCc1ccccc1)c1ccccc12", "measurement_kind": "Activity", "quantitative_readout": 104}
{"smiles_str": "CC(C)(C)OC(=O)[C@@H]1C[C@@H](N=C=S)C=C[C@@]12C(=O)N(C(=O)OCc1ccccc1)c1ccc(I)cc12", "measurement_kind": "Activity", "quantitative_readout": 88}
{"smiles_str": "Cc1ccc2c(c1)[C@]1(C=C[C@H](N=C=S)C[C@H]1C(=O)OC(C)(C)C)C(=O)N2C(=O)OCc1ccccc1", "measurement_kind": "Activity", "quantitative_readout": 68}
{"smiles_str": "O=C(OCc1ccccc1)[C@@H]1C[C@@H](N=C=S)C=C[C@@]12C(=O)N(C(=O)OCc1ccccc1)c1ccccc12", "measurement_kind": "Activity", "quantitative_readout": 104}
{"smiles_str": "CC(C)(C)OC(=O)[C@@H]1C[C@@H](N=C=S)C=C[C@@]12C(=O)N(C(=O)OCc1ccccc1)c1ccc(F)cc12", "measurement_kind": "Activity", "quantitative_readout": 81}
{"smiles_str": "CC(C)(C)OC(=O)[C@@H]1C[C@@H](N=C=S)C=C[C@@]12C(=O)N(C(=O)OCc1ccccc1)c1ccc(Br)cc12", "measurement_kind": "Activity", "quantitative_readout": 92}
{"smiles_str": "COc1ccc2c(c1)[C@]1(C=C[C@H](N=C=S)C[C@H]1C(=O)OC(C)(C)C)C(=O)N2", "measurement_kind": "Activity", "quantitative_readout": 75}
{"smiles_str": "O=C(c1ccccc1)[C@@H]1C[C@@H](N=C=S)C=C[C@@]12C(=O)N(C(=O)OCc1ccccc1)c1ccccc12", "measurement_kind": "Activity", "quantitative_readout": 56}
{"smiles_str": "CC(C)(C)OC(=O)[C@@H]1C[C@@H](NC(=S)NN)C=C[C@@]12C(=O)N(C(=O)OCc1ccccc1)c1ccccc12", "measurement_kind": "Activity", "quantitative_readout": 107}
{"smiles_str": "CC(C)(C)OC(=O)[C@@H]1C[C@@H](N=C=S)C=C[C@@]12C(=O)N(C(=O)OCc1ccccc1)c1cc(Br)ccc12", "measurement_kind": "Activity", "quantitative_readout": 71}
{"smiles_str": "COc1ccc2c(c1)[C@]1(C=C[C@H](N=C=S)C[C@H]1C(=O)OC(C)(C)C)C(=O)N2C(=O)OCc1ccccc1", "measurement_kind": "Activity", "quantitative_readout": 31}
{"smiles_str": "COC(=O)N1C(=O)[C@@]2(C=C[C@H](N=C=S)C[C@H]2C(=O)OC(C)(C)C)c2ccccc21", "measurement_kind": "Activity", "quantitative_readout": 68}
{"smiles_str": "CC1=C[C@@]2(C(=O)N(C(=O)OCc3ccccc3)c3ccccc32)[C@H](C(=O)OC(C)(C)C)C[C@H]1N=C=S", "measurement_kind": "Activity", "quantitative_readout": 93}
{"smiles_str": "CC(C)(C)OC(=O)[C@@H]1C[C@@H](N=C=S)C=C[C@@]12C(=O)N(C(=O)OCc1ccccc1)c1ccc(Cl)cc12", "measurement_kind": "Activity", "quantitative_readout": 77}
{"smiles_str": "CC(C)(C)OC(=O)[C@@H]1C[C@@H](N=C=S)C=C[C@@]12C(=O)N(C(=O)OCc1ccccc1)c1c(F)cccc12", "measurement_kind": "Activity", "quantitative_readout": 85}
{"smiles_str": "COC(=O)[C@@H]1C[C@@H](N=C=S)C=C[C@@]12C(=O)N(C(=O)OCc1ccccc1)c1ccccc12", "measurement_kind": "Activity", "quantitative_readout": 78}
{"smiles_str": "CC(C)(C)OC(=O)[C@@H]1C[C@@H](NC(=S)Nc2ccccc2)C=C[C@@]12C(=O)N(C(=O)OCc1ccccc1)c1ccccc12", "measurement_kind": "Activity", "quantitative_readout": 112}
